Tested on: CT26 tumor
Conditions used: number of mice; FIG. 9
Metric name: PR
Numbers only.

Would you please look over these solved cases?
Molecule	System	PR
CNC(=O)c1ccccc1Sc1ccc2c(/C=C/c3ccccn3)n[nH]c2c1 [Axitinib]	CT26 tumor	0
COc1cc2nccc(Oc3ccc(NC(=O)NC4CC4)c(Cl)c3)c2cc1C(N)=O [Lenvatinib]	CT26 tumor	1
CNC(=O)c1cc(Oc2ccc(NC(=O)Nc3ccc(Cl)c(C(F)(F)F)c3)c(F)c2)ccn1 [Regorafenib]	CT26 tumor	0

Turning now to a further molecule:
Recorded PR for COc1cc2nccc(Oc3ccc(NC(=O)C4(C(=O)Nc5ccc(F)cc5)CC4)cc3)c2cc1OC [Cabozantinib] , please?
0

* * *

Test system: CT26 tumor
Conditions used: FIG. 9
Metric name: Survival Rate (%)
Numbers only, in %.

Consider the reported Survival Rate (%) for these compounds:
Compound	Endpoint unit	Survival Rate (%)
CNC(=O)c1ccccc1Sc1ccc2c(/C=C/c3ccccn3)n[nH]c2c1 [Axitinib]	%	38
CNC(=O)c1cc(Oc2ccc(NC(=O)Nc3ccc(Cl)c(C(F)(F)F)c3)c(F)c2)ccn1 [Regorafenib]	%	13
COc1cc2nccc(Oc3ccc(NC(=O)C4(C(=O)Nc5ccc(F)cc5)CC4)cc3)c2cc1OC [Cabozantinib]	%	14

Attention now shifts to the item below.
Quick one: Survival Rate (%) for COc1cc2nccc(Oc3ccc(NC(=O)NC4CC4)c(Cl)c3)c2cc1C(N)=O [Lenvatinib] ?
0

* * *

Test system: CT26 tumor
Conditions used: FIG. 9; tumor growth at least 5 fold in mice with CR or PR
Metric name: Relapse (recurrence) (%)
Numbers only, in %.

The following molecules have reported results that may help.
Molecule	Relapse (recurrence) (%)
CNC(=O)c1cc(Oc2ccc(NC(=O)Nc3ccc(Cl)c(C(F)(F)F)c3)c(F)c2)ccn1	50
COc1cc2nccc(Oc3ccc(NC(=O)C4(C(=O)Nc5ccc(F)cc5)CC4)cc3)c2cc1OC [Cabozantinib]	67
COc1cc2nccc(Oc3ccc(NC(=O)NC4CC4)c(Cl)c3)c2cc1C(N)=O	100

Name the recorded Relapse (recurrence) for CNC(=O)c1ccccc1Sc1ccc2c(/C=C/c3ccccn3)n[nH]c2c1 .
0
